target: recombinant human TYRO3 (Homo sapiens (Human), UniProt Q06418); assay: TYRO3 enzymatic assay (radiometric [32P]-ATP, Poly(Glu,Tyr) substrate); assay type: biochemical; conditions: recombinant human TYRO3, [32P]-ATP
Sequence (Q06418 41-890): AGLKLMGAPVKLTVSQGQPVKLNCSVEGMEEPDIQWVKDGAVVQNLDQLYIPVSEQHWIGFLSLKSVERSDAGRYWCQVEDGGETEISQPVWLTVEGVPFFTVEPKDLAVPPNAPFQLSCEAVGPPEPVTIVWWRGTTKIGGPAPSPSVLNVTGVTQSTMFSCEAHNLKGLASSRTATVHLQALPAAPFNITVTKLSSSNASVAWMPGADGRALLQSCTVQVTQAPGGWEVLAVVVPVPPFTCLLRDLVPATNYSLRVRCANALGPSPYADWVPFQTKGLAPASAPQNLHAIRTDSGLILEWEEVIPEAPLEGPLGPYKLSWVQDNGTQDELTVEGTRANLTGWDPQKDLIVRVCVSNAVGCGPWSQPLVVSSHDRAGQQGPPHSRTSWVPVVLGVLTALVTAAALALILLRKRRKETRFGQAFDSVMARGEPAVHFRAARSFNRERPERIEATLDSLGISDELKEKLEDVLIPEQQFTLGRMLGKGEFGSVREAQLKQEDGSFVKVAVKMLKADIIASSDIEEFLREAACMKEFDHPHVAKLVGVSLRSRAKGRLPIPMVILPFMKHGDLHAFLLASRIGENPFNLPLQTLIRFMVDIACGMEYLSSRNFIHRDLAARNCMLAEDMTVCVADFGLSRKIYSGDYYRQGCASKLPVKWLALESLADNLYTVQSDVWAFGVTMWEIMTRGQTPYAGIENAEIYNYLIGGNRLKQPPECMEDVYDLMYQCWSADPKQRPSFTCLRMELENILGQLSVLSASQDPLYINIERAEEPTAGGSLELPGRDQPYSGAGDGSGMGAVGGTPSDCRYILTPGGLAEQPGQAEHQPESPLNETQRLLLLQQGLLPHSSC
IC50 by entry:

Fill in: IC50 of `COc1ccc(-c2c[nH]c3ncc(-c4ccc(CN5CCC6(CC5)CN(C)C6)cc4)cc23)cn1` is ___
151 to 500 nM

Fill in: IC50 of `COc1ccc(-c2c[nH]c3ncc(-c4ccc(CN5CC(OC)C5)cc4)cc23)cn1` is ___
51 to 150 nM

Fill in: IC50 of COCC1CCCN(Cc2ccc(-c3cnc4[nH]cc(-c5ccc(OC)nc5)c4c3)cc2)C1 (centres unmarked) is ___
51 to 150 nM

----------
molecular target: recombinant human TYRO3 (Homo sapiens (Human)); test: TYRO3 enzymatic assay (radiometric [32P]-ATP, Poly(Glu,Tyr) substrate); settings: recombinant human TYRO3, [32P]-ATP
IC50 by entry:

Some molecules with recorded IC50:
# molecule, system, IC50
rows = [
    ("OCc1[nH]c2ncc(-c3ccc(CN4CCCC(O)C4)cc3)cc2c1-c1cccc(F)c1 (single isomer, unassigned; enantiomer 1) [compound 88]", "recombinant human TYRO3 (Homo sapiens (Human))", "151 to 500 nM"),
    ("OC1CCCN(Cc2ccc(-c3cnc4[nH]cc(-c5cccc(Cl)c5)c4c3)cc2)C1 (stereo not drawn)", "recombinant human TYRO3 (Homo sapiens (Human))", "51 to 150 nM"),
    ("OC1CCCN(Cc2ccc(-c3cnc4[nH]c(Cl)c(-c5cccc(C(F)F)c5)c4c3)cc2)C1 (stereo not drawn)", "recombinant human TYRO3 (Homo sapiens (Human))", "151 to 500 nM"),
    ("COc1ccc(-c2c(C)[nH]c3ncc(-c4ccc(CN5CCCC(O)C5)cc4)cc23)cn1 (stereo not drawn)", "recombinant human TYRO3 (Homo sapiens (Human))", "51 to 150 nM"),
    ("CN1CCc2cc(-c3c[nH]c4ncc(-c5ccc(CN6CCCC(CO)C6)cc5)cc34)ccc2C1 (stereo not drawn)", "recombinant human TYRO3 (Homo sapiens (Human))", "51 to 150 nM"),
    ("OC1CCCN(Cc2ccc(-c3cnc4[nH]cc(-c5cccc(C(F)(F)F)c5)c4c3)cc2)C1 (stereo not drawn)", "recombinant human TYRO3 (Homo sapiens (Human))", "51 to 150 nM"),
    ("OC1CCCN(Cc2ccc(-c3cnc4[nH]c(Cl)c(-c5cccc(F)c5)c4c3)cc2)C1 (stereo not drawn)", "recombinant human TYRO3 (Homo sapiens (Human))", "51 to 150 nM"),
    ("OC1CCCN(Cc2ccc(-c3cnc4[nH]cc(-c5cncc(F)c5)c4c3)cc2)C1 (stereo not drawn)", "recombinant human TYRO3 (Homo sapiens (Human))", "51 to 150 nM"),
    ("COc1ccc(-c2c[nH]c3ncc(-c4ccc(CN5CCC(C)(O)CC5)cc4)cc23)cn1", "recombinant human TYRO3 (Homo sapiens (Human))", "51 to 150 nM"),
    ("COc1ccc(-c2c[nH]c3ncc(-c4ccc(CN5CCCC(OC(C)=O)C5)cc4)cc23)cn1 (stereo not drawn)", "recombinant human TYRO3 (Homo sapiens (Human))", "151 to 500 nM"),
]

Fill in: IC50 of OC1CCCN(Cc2ccc(-c3cnc4[nH]c(C(F)F)c(-c5cccc(F)c5)c4c3)cc2)C1 (stereo not drawn) is ___
51 to 150 nM

Fill in: IC50 of CC1(O)CCCN(Cc2ccc(-c3cnc4[nH]cc(-c5cccc(F)c5)c4c3)cc2)C1 (stereo not drawn) is ___
51 to 150 nM

Fill in: IC50 of OC1CCCN(Cc2ccc(-c3cnc4[nH]cc(-c5ccc(Cl)cc5)c4c3)cc2)C1 (stereo not drawn) is ___
51 to 150 nM

Fill in: IC50 of OC1CCCN(Cc2ccc(-c3cnc4[nH]cc(-c5ccc(F)cc5)c4c3)cc2)C1 (stereo not drawn) is ___
51 to 150 nM

Fill in: IC50 of COc1ccc(-c2c[nH]c3ncc(-c4ccc(CN5CCCC(O)C5)cc4)cc23)cn1 (single isomer, unassigned; enantiomer 2) [compound 27] is ___
51 to 150 nM
